target: Urotensin-2 receptor (Homo sapiens, UniProt Q9UKP6); experiment: Displacement of [125I]human urotensin 2 from human recombinant urotensin 2 receptor expressed in HEK293 cells
ENDPOINT_LABEL: Ki (nM)

Some solved cases for reference:
*Q* Fill in Ki for record CCCCNc1nccc2c1c1ccccc1n2C
*A* 50.1

*Q* Fill in Ki for record CCCCNc1ccnc2[nH]c3ccccc3c12
*A* 79.4

1 = c1ccc(CCNc2nccc3[nH]c4ccccc4c23)cc1
2 = CCCCNc1nccc2c1c1ccccc1n2C(C)C
3 = CCCCN(CCCC)c1nccc2[nH]c3ccccc3c12
*Q* Sort ascending by Ki. Write the labels out in the order the request specifies.
*A* 2, 1, 3

* * *

Target: Urotensin-2 receptor (Homo sapiens, UniProt Q9UKP6)
Sequence (Q9UKP6 whole entry): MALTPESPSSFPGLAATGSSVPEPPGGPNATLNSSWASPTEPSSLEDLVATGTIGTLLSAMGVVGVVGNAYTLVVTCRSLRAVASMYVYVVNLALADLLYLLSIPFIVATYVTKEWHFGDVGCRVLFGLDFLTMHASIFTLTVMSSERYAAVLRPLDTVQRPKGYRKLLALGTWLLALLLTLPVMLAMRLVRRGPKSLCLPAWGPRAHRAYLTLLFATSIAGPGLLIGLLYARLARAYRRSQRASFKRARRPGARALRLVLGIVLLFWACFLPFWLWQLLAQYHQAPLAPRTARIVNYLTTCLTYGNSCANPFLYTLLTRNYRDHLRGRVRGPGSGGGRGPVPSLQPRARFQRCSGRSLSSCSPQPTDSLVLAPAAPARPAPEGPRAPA
Experiment: Displacement of [125I]human urotensin 2 from human recombinant urotensin 2 receptor expressed in HEK293 cells
Type: cell-based
pKi: −log10 of the molar value.
ENDPOINT_LABEL: pKi

Some solved cases for reference:
*Q* Fill in pKi for record CCCCNc1ccnc2[nH]c3ccc(C)cc3c12
*A* 7.20

*Q* Fill in pKi for record c1ccc(CNc2nccc3[nH]c4ccccc4c23)cc1
*A* 7.90

*Q* Fill in pKi for record c1ccc2c(c1)[nH]c1nccc(NCC3CC3)c12
*A* 7.00

*Q* Fill in pKi for record CCCCCNc1nccc2[nH]c3ccccc3c12
*A* 8.40

a = COCCNc1ccnc2[nH]c3ccccc3c12
b = COCCNc1nccc2[nH]c3ccccc3c12
c = CC(C)CCNc1nccc2[nH]c3ccccc3c12
*Q* Sort ascending by pKi. Write the labels out in the order the request specifies.
*A* a, b, c
(a: 6.50, b: 7.70, c: 7.90)

* * *

target: Urotensin-2 receptor (Homo sapiens, UniProt Q9UKP6); assay: Antagonist activity at human urotensin 2 receptor by FLIPR assay; assay type: functional; details: read-out: pA2 (converted)
ENDPOINT_LABEL: Kb (nM)

*Q* Fill in Kb for record c1ccc2c(c1)[nH]c1ccnc(NCC3CC3)c12
*A* 126

*Q* Fill in Kb for record CCCCNc1nccc2[nH]c3ccccc3c12
*A* 100

A = c1ccc(CNc2nccc3[nH]c4ccccc4c23)cc1
B = CCC(C)CNc1nccc2[nH]c3ccccc3c12 (stereo not given)
C = c1csc(CNc2nccc3[nH]c4ccccc4c23)c1
*Q* Task field, ranking: reported Kb, descending order. Write the labels out in the order the request specifies.
*A* C, B, A
(C: 158 nM, B: 100 nM, A: 20 nM)

* * *

molecular target: Cytochrome P450 3A4 (Homo sapiens)
Sequence (P08684 whole entry): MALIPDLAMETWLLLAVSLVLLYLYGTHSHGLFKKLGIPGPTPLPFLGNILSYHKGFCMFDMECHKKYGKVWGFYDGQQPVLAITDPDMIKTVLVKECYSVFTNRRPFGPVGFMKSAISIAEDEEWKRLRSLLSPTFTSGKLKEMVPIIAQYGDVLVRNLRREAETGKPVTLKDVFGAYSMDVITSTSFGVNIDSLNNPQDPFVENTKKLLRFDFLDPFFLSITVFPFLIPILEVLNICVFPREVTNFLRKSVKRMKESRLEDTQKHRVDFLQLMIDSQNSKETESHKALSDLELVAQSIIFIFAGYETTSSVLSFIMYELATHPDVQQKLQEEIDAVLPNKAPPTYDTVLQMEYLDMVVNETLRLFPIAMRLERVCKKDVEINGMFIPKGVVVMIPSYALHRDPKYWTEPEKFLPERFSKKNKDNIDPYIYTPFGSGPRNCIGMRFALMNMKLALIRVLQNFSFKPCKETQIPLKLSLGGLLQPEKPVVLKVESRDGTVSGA
ENDPOINT_LABEL: IC50 (nM)
Expressed in nM, but write only the number.

*Q* # lookup: Cytochrome P450 3A4 (Homo sapiens) IC50, key = CCCCNc1nccc2[nH]c3ccccc3c12
*A* 100

* * *

experiment: Aqueous solubility in phosphate buffer by HPLC; assay type: physicochemical
ENDPOINT_LABEL: solubility (µM)
Expressed in µM, but write only the number.

*Q* Fill in solubility for record CCCCNc1nccc2[nH]c3ccccc3c12
*A* 195

* * *

target: Cytochrome P450 2D6 (Homo sapiens, UniProt P10635)
Sequence (P10635 whole entry): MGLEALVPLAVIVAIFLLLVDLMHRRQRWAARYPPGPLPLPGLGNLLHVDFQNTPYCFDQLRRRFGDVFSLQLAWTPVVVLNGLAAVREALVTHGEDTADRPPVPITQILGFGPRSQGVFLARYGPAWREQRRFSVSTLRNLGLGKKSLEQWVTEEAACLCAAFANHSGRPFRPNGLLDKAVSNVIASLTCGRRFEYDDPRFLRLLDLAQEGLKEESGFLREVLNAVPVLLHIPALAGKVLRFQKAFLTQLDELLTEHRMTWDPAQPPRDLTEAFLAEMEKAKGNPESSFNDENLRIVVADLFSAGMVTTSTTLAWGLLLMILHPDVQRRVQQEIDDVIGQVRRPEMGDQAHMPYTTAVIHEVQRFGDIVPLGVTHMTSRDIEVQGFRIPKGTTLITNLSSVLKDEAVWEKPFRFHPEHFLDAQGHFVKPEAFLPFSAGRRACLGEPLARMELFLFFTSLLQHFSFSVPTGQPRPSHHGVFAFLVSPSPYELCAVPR
ENDPOINT_LABEL: pIC50
Keep in mind that pIC50 stands for -log10 of concentration in molar terms.

*Q* # lookup: Cytochrome P450 2D6 (Homo sapiens, UniProt P10635) pIC50, key = CCCCNc1nccc2[nH]c3ccccc3c12
*A* 8.10

* * *

target: Urotensin-2 receptor (Homo sapiens, UniProt Q9UKP6); assay: Displacement of [125I]human urotensin 2 from human recombinant urotensin 2 receptor expressed in HEK293 cells
pKi: −log10 of the molar value.
ENDPOINT_LABEL: pKi

*Q* Fill in pKi for record CCOCCNc1nccc2[nH]c3ccccc3c12
*A* 7.90

*Q* Fill in pKi for record CCCCNc1ccnc2[nH]c3ccc(Cl)cc3c12
*A* 7.30

*Q* Fill in pKi for record c1ccc2c(c1)[nH]c1ccnc(NCC3CC3)c12
*A* 8.20

P = c1ccc2c(c1)[nH]c1ccnc(NCC3CCCO3)c12 (stereo not drawn)
Q = CCC(C)CNc1nccc2[nH]c3ccccc3c12 (stereo not drawn)
R = CCCNc1nccc2[nH]c3ccccc3c12
S = CCNc1nccc2[nH]c3ccccc3c12
T = c1ccc2c(c1)[nH]c1ccnc(NC3CC3)c12
*Q* Task field, ranking: reported pKi, descending order. Write the labels out in the order the request specifies.
*A* Q, R, P, S, T
(Q: 8.00, R: 7.60, P: 7.10, S: 5.80, T: 5.60)

P = CCCCNc1ccnc2[nH]c3c(OC)cccc3c12
Q = c1ccc2c(c1)[nH]c1ccnc(NCC3CCCCC3)c12
R = CCCCNc1nccc2c1c1ccccc1n2Cc1ccccc1
S = CCCCNc1nccc2[nH]c3ccccc3c12
*Q* Task field, ranking: reported pKi, descending order. Write the labels out in the order the request specifies.
*A* S, Q, P, R
(S: 8.40, Q: 8.00, P: 7.50, R: 5.40)

* * *

molecular target: Voltage-gated inwardly rectifying potassium channel KCNH2 (Homo sapiens, UniProt Q12809)
Sequence (Q12809 whole entry): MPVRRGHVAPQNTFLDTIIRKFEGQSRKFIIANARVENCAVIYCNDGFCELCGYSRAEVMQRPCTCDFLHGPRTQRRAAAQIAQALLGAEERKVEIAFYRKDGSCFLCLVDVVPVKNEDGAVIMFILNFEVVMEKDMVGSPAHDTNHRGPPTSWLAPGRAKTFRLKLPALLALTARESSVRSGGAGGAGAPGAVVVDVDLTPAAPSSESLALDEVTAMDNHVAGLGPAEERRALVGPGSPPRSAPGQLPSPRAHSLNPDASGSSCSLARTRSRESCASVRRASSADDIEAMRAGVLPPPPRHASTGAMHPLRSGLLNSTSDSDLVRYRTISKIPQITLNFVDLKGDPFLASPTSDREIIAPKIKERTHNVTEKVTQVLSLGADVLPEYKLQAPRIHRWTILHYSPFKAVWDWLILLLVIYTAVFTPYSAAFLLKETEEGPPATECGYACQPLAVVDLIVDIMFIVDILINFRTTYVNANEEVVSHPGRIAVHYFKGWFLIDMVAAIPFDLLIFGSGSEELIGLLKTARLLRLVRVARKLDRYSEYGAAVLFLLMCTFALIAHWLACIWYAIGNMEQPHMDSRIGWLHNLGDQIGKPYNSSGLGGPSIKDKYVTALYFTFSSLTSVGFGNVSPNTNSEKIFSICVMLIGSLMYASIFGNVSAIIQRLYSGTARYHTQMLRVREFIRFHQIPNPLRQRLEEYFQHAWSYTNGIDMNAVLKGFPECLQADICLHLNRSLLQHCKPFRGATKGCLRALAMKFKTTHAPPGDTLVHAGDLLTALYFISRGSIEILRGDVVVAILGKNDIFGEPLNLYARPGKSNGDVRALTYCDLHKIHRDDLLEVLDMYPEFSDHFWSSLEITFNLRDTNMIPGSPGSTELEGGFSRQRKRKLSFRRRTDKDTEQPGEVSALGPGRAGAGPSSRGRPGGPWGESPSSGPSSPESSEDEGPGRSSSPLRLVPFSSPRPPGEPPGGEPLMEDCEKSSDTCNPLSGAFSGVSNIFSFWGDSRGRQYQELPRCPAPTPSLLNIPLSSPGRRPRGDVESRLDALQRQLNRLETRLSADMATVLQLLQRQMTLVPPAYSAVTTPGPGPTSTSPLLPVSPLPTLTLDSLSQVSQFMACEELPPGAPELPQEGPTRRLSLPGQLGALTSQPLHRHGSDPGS
ENDPOINT_LABEL: pIC50
Keep in mind that pIC50 stands for -log10 of concentration in molar terms.

*Q* # lookup: Voltage-gated inwardly rectifying potassium channel KCNH2 (Homo sapiens, UniProt Q12809) pIC50, key = CCCCNc1nccc2[nH]c3ccccc3c12
*A* 5.80

* * *

experiment: Half life in rat at 0.49 mg/kg, iv or 0.97 mg/kg, po; type: ADME, organism-based; details: in vivo
ENDPOINT_LABEL: half-life (h)
Expressed in h, but write only the number.

*Q* Fill in half-life for record CCCCNc1nccc2[nH]c3ccccc3c12
*A* 1.3

* * *

Target: Urotensin-2 receptor (Homo sapiens)
Sequence (Q9UKP6 whole entry): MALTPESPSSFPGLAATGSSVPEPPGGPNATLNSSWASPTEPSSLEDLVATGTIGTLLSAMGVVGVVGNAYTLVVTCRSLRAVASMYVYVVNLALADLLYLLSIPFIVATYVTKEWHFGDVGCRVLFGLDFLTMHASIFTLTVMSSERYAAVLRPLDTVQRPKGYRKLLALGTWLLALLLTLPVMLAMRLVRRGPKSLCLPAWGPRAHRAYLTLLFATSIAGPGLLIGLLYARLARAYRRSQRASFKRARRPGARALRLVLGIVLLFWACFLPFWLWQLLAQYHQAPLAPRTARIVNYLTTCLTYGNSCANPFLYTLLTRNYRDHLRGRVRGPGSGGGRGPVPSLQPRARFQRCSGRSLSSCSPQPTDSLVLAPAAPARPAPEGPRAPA
Experiment: Antagonist activity at human recombinant urotensin 2 receptor expressed in HEK293 cells assessed as inhibition of […] calcium mobilization by FLIPR assay
ENDPOINT_LABEL: IC50 (nM)
Expressed in nM, but write only the number.

*Q* # lookup: Urotensin-2 receptor (Homo sapiens) IC50, key = CCCCNc1nccc2[nH]c3ccccc3c12
*A* 501

* * *

Values of Ki reported for Urotensin II receptor (Felis catus, UniProt Q533H1) appear below.
ENDPOINT_LABEL: Ki (nM)

P = c1csc(CNc2nccc3[nH]c4ccccc4c23)c1
Q = CCCCNc1nccc2c1c1ccccc1n2C
*Q* // compare: P vs Q , metric Ki, want the smaller Refer to your chosen item by its label in the answer.
*A* Q
(Q: 1000 nM, P: 3160 nM)

* * *

assay: Permeability across artificial phospholipid membrane by HPLC; format: ADME; settings: not told; read-out: permeability
ENDPOINT_LABEL: Papp (×10⁻⁶ cm/s)
Expressed in ×10⁻⁶ cm/s, but write only the number.

*Q* Fill in Papp for record CCCCNc1nccc2[nH]c3ccccc3c12
*A* 47

* * *

target: Urotensin-2 receptor (Homo sapiens, UniProt Q9UKP6); test: Displacement of [125I]human urotensin 2 from human recombinant urotensin 2 receptor expressed in HEK293 cells; format: cell-based
ENDPOINT_LABEL: Ki (nM)

*Q* Fill in Ki for record CCCC(C)Nc1nccc2[nH]c3ccccc3c12 (stereo unspecified)
*A* 794

A = c1ccc2c(c1)[nH]c1nccc(NCC3CCCCC3)c12
B = CCCCCCNc1nccc2[nH]c3ccccc3c12
C = c1csc(CNc2nccc3[nH]c4ccccc4c23)c1
*Q* Task field, ranking: reported Ki, descending order. Write the labels out in the order the request specifies.
*A* A, C, B
